result_type: melting point

Field: example entries. Status: answers known.
Cc1cccc(-c2ccc3c(c2)c2c(n3Cc3ccccc3)COC(=O)C2=O)c1 225 to 226 °C
CC(C)(C)c1ccc(Cn2c3c(c4cc(O)ccc42)C(=O)C(=O)OC3)cc1 > 105 °C (dec.)
O=C1OCc2c(c3cc(-c4ccc(Cl)cc4)ccc3n2Cc2ccccc2)C1=O 263 to 264 °C

What does the record list as melting point for `CC(C)(C)c1ccc(Cn2c3c(c4cc(OCc5ccccc5)ccc42)C(=O)C(=O)OC3)cc1` ? 233 to 234 °C

What does the record list as melting point for `O=C([O-])C(=O)c1c(CO)n(Cc2ccccc2)c2ccc(-c3ccc(-c4ccccc4)cc3)cc12.[K+]` ? 266 to 268 °C
